Where do these numbers come from? They come from patent US20250206818A1.

STUDY TARGET: T1, recombinant human LAG-3 (human, UniProt P18627 23-450, limits assumed)
T1 sequence (looked up): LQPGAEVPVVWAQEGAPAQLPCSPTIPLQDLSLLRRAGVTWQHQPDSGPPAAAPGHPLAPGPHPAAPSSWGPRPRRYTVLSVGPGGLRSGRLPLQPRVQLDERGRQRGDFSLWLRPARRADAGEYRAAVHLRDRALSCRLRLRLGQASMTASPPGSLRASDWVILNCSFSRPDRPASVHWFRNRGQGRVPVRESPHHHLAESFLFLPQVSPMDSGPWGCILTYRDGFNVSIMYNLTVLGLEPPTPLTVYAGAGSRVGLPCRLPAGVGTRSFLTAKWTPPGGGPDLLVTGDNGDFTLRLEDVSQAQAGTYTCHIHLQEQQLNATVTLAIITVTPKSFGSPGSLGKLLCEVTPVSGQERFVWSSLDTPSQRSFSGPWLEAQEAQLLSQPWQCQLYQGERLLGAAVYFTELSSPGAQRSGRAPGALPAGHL
PROCEDURE TEXT: surface plasmon resonance (data not shown)
PROPERTY MEASURED: binding result

binder="P13B02-04 (antibody, IgG1, V domains shown, Humanized; generated as full length IgG1) VH: QVQLVQSGAEVKKPGASVKVSCKASGFNIKDTYIHWVRQAPGQGLEWMGEIDPANDNTKYDPKFQGRVTMTRDTSTSTVYMELSSLRSEDTAVYYCARYYYRYDVGGFDYWGQGTLVTVSS VL: EILLTQSPGTLSLSPGERATLSCSVSSSISSSNLHWFQQKPGQAPRLWIYGTSNLASGVPDRFSGSGSGTSYTLTISRLEPEDFAVYYCQQWSSYPFTFGQGTKVEIK" property_measured="binding result" result=binds
binder="P13B02-27 (antibody, IgG1, V domains shown, Humanized; VH is H4_D100E; generated as full length IgG1; also called P13B02-27 (IgG1)) VH: QVQMKQSGAEVVKPGASVKVSCTASGFNIKDTYIHWVRQAPGQGLEWIGEIDPANDNTKYDPKFQGRVTITADTSSNTVYLQLSSLRSEDTAVYYCATYYYRYEVGGFDYWGQGTLVTVSS VL: EILLTQSPGTLSLSPGERATLTCSVSSSISSSNLHWFQQKPGQSPRLWIYGTSNLASGVPDRFSGSGSGTSYTLTISRLEPEDFAVYYCQQWSSYPFTFGQGTKVEIK" property_measured="binding result" result=binds
